# experimental_target: CDK5 (human) (UniProt Q00535)
# Sequence (Q00535 whole entry, looked up): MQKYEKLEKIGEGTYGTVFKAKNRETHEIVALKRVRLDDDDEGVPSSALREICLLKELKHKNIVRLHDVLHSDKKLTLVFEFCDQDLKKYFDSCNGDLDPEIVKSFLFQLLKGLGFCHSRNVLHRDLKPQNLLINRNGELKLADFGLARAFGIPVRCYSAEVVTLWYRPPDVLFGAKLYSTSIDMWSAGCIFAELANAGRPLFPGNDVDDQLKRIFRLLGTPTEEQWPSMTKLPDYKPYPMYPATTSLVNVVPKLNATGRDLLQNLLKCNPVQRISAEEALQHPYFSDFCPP
# protocol_summary: KINOMEscan competition binding
# condition_set: compound 10.0 µM
test_readout: kinase still bound, per cent of control
Remember to quote the unit after the number.

Data request: Which kinase still bound, per cent of control is listed for CNC(=O)Nc1ccc(-c2nc(N3CC4CCC(C3)O4)c3cnn(C4CCC5(CC4)OCCO5)c3n2)cc1 ?
Data returned: 88%

Data request: Entry CC(=O)c1c(C)c2cnc(Nc3ccc(N4CCNCC4)cn3)nc2n(C2CCCC2)c1=O please
Data returned: 48%

Data request: Entry Cc1cn(-c2cc(C(=O)Nc3ccc(C)c(NC(=O)c4ccno4)c3)cc(C(F)(F)F)c2)cn1 please
Data returned: 100%

Data request: Entry COc1cc(N2CCC(C(N)=O)CC2)ccc1Nc1nc(N)c(Cl)c(Nc2ccccc2S(=O)(=O)C(C)C)n1 please
Data returned: 100%

Data request: Entry COc1ccc(N(C(=O)Oc2cc(C(=O)Nc3cccc(C(F)(F)F)c3)ccc2C)c2ccnc(Nc3ccc(N4CCN(C)CC4)cc3)n2)c(OC)c1 please
Data returned: 100%

Data request: Entry CCN1CCN(Cc2ccc(NC(=O)c3ccc(C)c(/C=C/c4cnc5[nH]ccc5c4OC)c3)cc2C(F)(F)F)CC1 please
Data returned: 100%

Data request: Entry CCN(CCO)CCCOc1ccc2c(Nc3cc(CC(=O)Nc4cccc(F)c4)[nH]n3)ncnc2c1 please
Data returned: 100%

Data request: Entry C=CC(=O)Nc1ccc(C(=O)c2sc(Nc3ccc(N4CCN(C)CC4)cc3OC)nc2N)cc1 please
Data returned: 86%
